The measured values listed here are drawn from patent US8217065B2.

Target: human DGAT1 (Homo sapiens, UniProt O75907)
Sequence (O75907 1-488): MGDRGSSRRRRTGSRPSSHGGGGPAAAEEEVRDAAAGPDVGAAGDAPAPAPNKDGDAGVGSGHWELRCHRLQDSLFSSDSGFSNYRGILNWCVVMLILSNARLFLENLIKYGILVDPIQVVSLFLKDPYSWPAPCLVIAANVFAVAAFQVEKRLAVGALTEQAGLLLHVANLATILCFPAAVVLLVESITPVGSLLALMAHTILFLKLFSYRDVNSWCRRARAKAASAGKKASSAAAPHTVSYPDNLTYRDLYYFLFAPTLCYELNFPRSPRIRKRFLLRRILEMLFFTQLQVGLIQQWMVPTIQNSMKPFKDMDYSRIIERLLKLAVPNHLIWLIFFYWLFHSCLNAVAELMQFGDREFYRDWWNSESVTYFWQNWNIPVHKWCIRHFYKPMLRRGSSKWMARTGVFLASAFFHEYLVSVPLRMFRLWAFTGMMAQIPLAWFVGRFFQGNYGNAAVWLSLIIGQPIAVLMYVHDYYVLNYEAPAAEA
pIC50: −log10 of the molar value.
Reported metric: pIC50

[[record]]
smiles_record = "COc1ccc(-c2nnc(-c3ccc4nc(-c5c(C)cc(CC(C)(C)C(=O)O)cc5C)[nH]c4c3)o2)cc1"
numeric_result = 7.82

[[record]]
smiles_record = "Clc1cccc(Cl)c1-c1nc2ccc(-c3nnc(Nc4cccnc4)o3)cc2[nH]1"
numeric_result = 6.40

